Molecular target: T1, EsCas13d, nuclease-dead (Eubacterium siraeum, UniProt B0MS50, R295A;H300A;R849A;H854A)
T1 sequence: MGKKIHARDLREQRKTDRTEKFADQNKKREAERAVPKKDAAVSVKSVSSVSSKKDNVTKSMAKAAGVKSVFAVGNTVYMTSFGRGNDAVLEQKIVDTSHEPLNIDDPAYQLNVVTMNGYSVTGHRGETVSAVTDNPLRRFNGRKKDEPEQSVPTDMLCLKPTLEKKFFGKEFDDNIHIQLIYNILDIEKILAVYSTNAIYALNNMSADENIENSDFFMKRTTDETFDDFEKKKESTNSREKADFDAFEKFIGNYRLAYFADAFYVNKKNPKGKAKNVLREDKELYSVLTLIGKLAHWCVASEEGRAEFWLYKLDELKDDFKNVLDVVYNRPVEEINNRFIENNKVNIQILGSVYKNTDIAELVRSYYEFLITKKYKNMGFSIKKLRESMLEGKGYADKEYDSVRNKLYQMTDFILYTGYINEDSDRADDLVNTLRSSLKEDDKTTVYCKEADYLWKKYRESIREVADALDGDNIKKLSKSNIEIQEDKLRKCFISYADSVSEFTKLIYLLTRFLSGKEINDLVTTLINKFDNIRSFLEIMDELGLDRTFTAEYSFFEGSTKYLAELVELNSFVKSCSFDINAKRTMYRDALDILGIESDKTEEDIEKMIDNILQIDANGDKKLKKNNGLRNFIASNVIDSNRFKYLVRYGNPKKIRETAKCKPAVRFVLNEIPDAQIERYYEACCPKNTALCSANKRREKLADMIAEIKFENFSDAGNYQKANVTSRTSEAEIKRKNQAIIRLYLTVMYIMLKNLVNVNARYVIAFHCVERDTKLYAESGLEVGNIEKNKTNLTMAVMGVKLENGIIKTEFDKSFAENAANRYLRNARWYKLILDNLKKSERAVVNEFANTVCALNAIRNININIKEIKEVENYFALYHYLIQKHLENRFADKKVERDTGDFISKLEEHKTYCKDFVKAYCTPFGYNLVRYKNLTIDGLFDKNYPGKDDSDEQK
Assay: crRNA (strand 1, pre-loaded); Mg2+; 40 mM Tris-HCl pH 7.5, 150 mM NaCl, 6 mM MgCl2, 1 mM DTT, 0.1% Tween-20, 0.2 mg/ml BSA; 25 C; 10 min per concentration, then washed
Conditions: tags: His6-TwinStrep-SUMO cleaved; N-terminal SNAP kept (SNAP-Surface 488); label: 3' end held by stalled T7 RNA polymerase
Kd under 40 nM gets True, anything at or over 40 nM gets False.

A selection of reference data follows.
target 3 G19U,U21A (mixed) RNA 1: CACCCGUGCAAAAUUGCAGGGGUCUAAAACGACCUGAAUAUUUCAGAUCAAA RNA 2: GGGAAUGGAUCCACAUCUACGAAUUCGUUUAUUAUCUGAAAUAUUCAGGUCUGCAGAUCGGAAGAGCACACGU	False
target 3 insA 3' of 4,insA 3' of 2 (mixed) RNA 1: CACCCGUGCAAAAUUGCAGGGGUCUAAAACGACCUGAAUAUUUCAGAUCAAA RNA 2: GGGAAUGGAUCCACAUCUACGAAUUCGUUUUUGAUCUGAAAUAUUCAGAGUACUGCAGAUCGGAAGAGCACACGU	True
target 1 U3A,C4G (mixed) RNA 1: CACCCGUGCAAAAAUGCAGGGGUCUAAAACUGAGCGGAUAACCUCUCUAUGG RNA 2: GGGAAUGGAUCCACAUCUACGAAUUCGUACCAUAGAGAGGUUAUCCGGACACCGAGAUCGGAAGAGCACACGU	True
target 1 insA 3' of 22,insG 3' of 18 (mixed) RNA 1: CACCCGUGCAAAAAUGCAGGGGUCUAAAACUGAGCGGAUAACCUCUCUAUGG RNA 2: GGGAAUGGAUCCACAUCUACGAAUUCGUACACAUAGGAGAGGUUAUCCGCUCACCGAGAUCGGAAGAGCACACGU	False
target 2 MT 5'PFS UUA 3'PFS UAU (mixed) RNA 1: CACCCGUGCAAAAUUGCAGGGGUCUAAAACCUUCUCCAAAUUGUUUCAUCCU RNA 2: GGGAAUGGAUCCACAUCUACGAAUUCUUAAGGAUGAAACAAUUUGGAGAAGUAUAGAUCGGAAGAGCACACGU	True
target 1 MT 5'PFS CAC 3'PFS UUU (mixed) RNA 1: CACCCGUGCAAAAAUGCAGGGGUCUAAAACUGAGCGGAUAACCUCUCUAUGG RNA 2: GGGAAUGGAUCCACAUCUACGAAUUCCACCCAUAGAGAGGUUAUCCGCUCAUUUAGAUCGGAAGAGCACACGU	True

In: Item target 1 insC 3' of 3,insC 3' of 3 (mixed) RNA 1: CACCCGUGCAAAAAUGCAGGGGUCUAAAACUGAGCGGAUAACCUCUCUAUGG RNA 2: GGGAAUGGAUCCACAUCUACGAAUUCGUACCAUAGAGAGGUUAUCCGCUCCCACCGAGAUCGGAAGAGCACACGU : Kd beneath 40 nM, strictly?
Out: False

In: Item target 1 MT 5'PFS UAA 3'PFS AUA (mixed) RNA 1: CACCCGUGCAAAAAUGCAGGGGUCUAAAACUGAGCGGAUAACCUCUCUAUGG RNA 2: GGGAAUGGAUCCACAUCUACGAAUUCUAACCAUAGAGAGGUUAUCCGCUCAAUAAGAUCGGAAGAGCACACGU : Kd beneath 40 nM, strictly?
Out: False
